Test system: KB cells
ASSAY COMMENT: Cell viability assay (CellTiter-Blue), KB cells
Type: cell-based, human
EXPERIMENTAL SETUP: 7 × 10^3 cells per well, folic acid-depleted RPMI-1640 + 10% FBS, 1% DMSO, 24 h at 37 °C, then CellTiter-Blue 4 h, three biological replicates fitted in Origin, standard error in brackets
The entries below come with measured EC50 values attached.
Expressed in µM, but write only the number.

MOLECULE	QUANTITATIVE RESULT
CC(C)C[C@H](NC(=O)[C@H](CCCCN)NC(=O)CCCCC[N+]1=C(/C=C/C=C2\N(C)c3ccccc3C2(C)C)C(C)(C)c2ccccc21)C(=O)N[C@@H](C)C(=O)N[C@@H](CCCCN)C(=O)N[C@@H](CC(C)C)C(=O)N[C@@H](C)C(=O)N[C@@H](CCCCN)C(=O)N[C@@H](CCCCN)C(=O)N[C@@H](CC(C)C)C(=O)N[C@@H](C)C(=O)N[C@@H](CCCCN)C(=O)N[C@@H](CC(C)C)C(=O)N[C@@H](C)C(=O)N[C@@H](CCCCN)C(N)=O	6.7

Looking for the measured EC50 of CC(C)C[C@@H](NC(=O)[C@H](N)CCCCN)C(=O)N[C@H](C)C(=O)N[C@H](CCCCN)C(=O)N[C@H](CC(C)C)C(=O)N[C@H](C)C(=O)N[C@H](CCCCN)C(=O)N[C@H](CCCCN)C(=O)N[C@H](CC(C)C)C(=O)N[C@H](C)C(=O)N[C@H](CCCCN)C(=O)N[C@H](CC(C)C)C(=O)N[C@H](C)C(=O)N[C@H](CCCCN)C(N)=O [Compound 3, reference compound] , can you help?
331

CC(C)C[C@@H](NC(=O)[C@@H](CCCCN)NC(=O)[C@H](CCCCNC(=O)[C@H](CCC(=O)O)NC(=O)c1ccc(NCc2cnc3nc(N)nc(O)c3n2)cc1)NC(=O)CCCCC[N+]1=C(/C=C/C=C2\N(C)c3ccccc3C2(C)C)C(C)(C)c2ccccc21)C(=O)N[C@H](C)C(=O)N[C@H](CCCCN)C(=O)N[C@H](CC(C)C)C(=O)N[C@H](C)C(=O)N[C@H](CCCCN)C(=O)N[C@H](CCCCN)C(=O)N[C@H](CC(C)C)C(=O)N[C@H](C)C(=O)N[C@H](CCCCN)C(=O)N[C@H](CC(C)C)C(=O)N[C@H](C)C(=O)N[C@H](CCCCN)C(N)=O , same question.
22.4

Could you do the same for CC(C)C[C@H](NC(=O)[C@H](CCCCN)NC(=O)[C@H](C)NC(=O)[C@H](CC(C)C)NC(=O)[C@H](CCCCN)NC(=O)[C@H](CCCCN)NC(=O)[C@H](C)NC(=O)[C@H](CC(C)C)NC(=O)[C@H](CCCCN)NC(=O)[C@H](C)NC(=O)[C@H](CC(C)C)NC(=O)[C@H](CCCCN)NC(=O)[C@H](CCCCNC(=O)[C@H](CCC(=O)O)NC(=O)c1ccc(NCc2cnc3nc(N)nc(O)c3n2)cc1)NC(=O)CCCCC[N+]1=C(/C=C/C=C2\N(C)c3ccccc3C2(C)C)C(C)(C)c2ccccc21)C(=O)N[C@@H](C)C(=O)N[C@@H](CCCCN)C(N)=O , please?
38.8

And CC(=O)N[C@@H](CCCCNC(=O)[C@H](CCC(=O)O)NC(=O)c1ccc(NCc2cnc3nc(N)nc(O)c3n2)cc1)C(=O)N[C@@H](CCCCN)C(=O)N[C@@H](CC(C)C)C(=O)N[C@@H](C)C(=O)N[C@@H](CCCCN)C(=O)N[C@@H](CC(C)C)C(=O)N[C@@H](C)C(=O)N[C@@H](CCCCN)C(=O)N[C@@H](CCCCN)C(=O)N[C@@H](CC(C)C)C(=O)N[C@@H](C)C(=O)N[C@@H](CCCCN)C(=O)N[C@@H](CC(C)C)C(=O)N[C@@H](C)C(=O)N[C@@H](CCCCN)C(N)=O ?
242

---

Test system: KB cells
ASSAY COMMENT: Cell viability assay (CellTiter-Blue), KB cells
Assay type: cell-based, human
EXPERIMENTAL SETUP: 7 × 10^3 cells per well, folic acid-depleted RPMI-1640 + 10% FBS, 1% DMSO, 24 h at 37 °C, then CellTiter-Blue 4 h, three biological replicates fitted in Origin, standard error in brackets
VALUE TYPE: EC50 (µM)
I only need the number, in µM, no unit after it.

I'd like to know its EC50. The compound in question is CC(C)C[C@@H](NC(=O)[C@@H](CCCCN)NC(=O)CCCCC[N+]1=C(/C=C/C=C2\N(C)c3ccccc3C2(C)C)C(C)(C)c2ccccc21)C(=O)N[C@H](C)C(=O)N[C@H](CCCCN)C(=O)N[C@H](CC(C)C)C(=O)N[C@H](C)C(=O)N[C@H](CCCCN)C(=O)N[C@H](CCCCN)C(=O)N[C@H](CC(C)C)C(=O)N[C@H](C)C(=O)N[C@H](CCCCN)C(=O)N[C@H](CC(C)C)C(=O)N[C@H](C)C(=O)N[C@H](CCCCN)C(N)=O
3.5

---

Tested on: KB cells
ASSAY COMMENT: Cell viability assay (CellTiter-Blue), KB cells
Type: cell-based, human
EXPERIMENTAL SETUP: 7 × 10^3 cells per well, folic acid-depleted RPMI-1640 + 10% FBS, 1% DMSO, 24 h at 37 °C, then CellTiter-Blue 4 h, three biological replicates fitted in Origin, standard error in brackets
VALUE TYPE: EC50 (µM)
Expressed in µM, but write only the number.

What does the data say about its EC50? Entry: CC(=O)N[C@@H](CCCCNC(=O)[C@H](CCC(=O)O)NC(=O)c1ccc(NCc2cnc3nc(N)nc(O)c3n2)cc1)C(=O)N[C@H](CCCCN)C(=O)N[C@H](CC(C)C)C(=O)N[C@H](C)C(=O)N[C@H](CCCCN)C(=O)N[C@H](CC(C)C)C(=O)N[C@H](C)C(=O)N[C@H](CCCCN)C(=O)N[C@H](CCCCN)C(=O)N[C@H](CC(C)C)C(=O)N[C@H](C)C(=O)N[C@H](CCCCN)C(=O)N[C@H](CC(C)C)C(=O)N[C@H](C)C(=O)N[C@H](CCCCN)C(N)=O
151
